Tested on: A 549
Assay: Anti-proliferative activity in other cancer cell lines (MTT assay)
Assay type: cell-based
Conditions: Homo sapiens, A549, 96 h, A 549 (lung), 4 days, mean of three assays
measurementType: IC50 (nM)

moleculeSmiles	measurementType	unitString	recordedValue
COC(=O)Cn1c(C)c(/C=N/NC(=O)c2cc3c(ccc4ccccc43)o2)c2ccccc21	IC50	nM	495

====

Test system: A172
Test: Anti-proliferative activity in other cancer cell lines (MTT assay)
Type: cell-based
Settings: Homo sapiens, A 172, 96 h, A172 (brain), 4 days, mean of three assays
pIC50: −log10 of the molar value.

compound	pIC50
COC(=O)Cn1c(C)c(/C=N/NC(=O)c2cc3c(ccc4ccccc43)o2)c2ccccc21 [WCI-1031]	5.95

====

Test system: PC3
Assay: Anti-proliferative activity in other cancer cell lines (MTT assay)
Type: cell-based
Settings: Homo sapiens, PC-3, 96 h, PC3 (prostate), 4 days, mean of three assays
measurementType: IC50

compound	testTarget	recordedValue
COC(=O)Cn1c(C)c(/C=N/NC(=O)c2cc3c(ccc4ccccc43)o2)c2ccccc21 [WCI-1031]	PC3	0.549 µM

====

Tested on: NCIH-125
Test: Anti-proliferative activity in other cancer cell lines (MTT assay)
Type: cell-based
Settings: Homo sapiens, NCI-H125, 96 h, NCIH-125 (lung), 4 days, mean of three assays

moleculeSmiles	testTarget	IC50 [µM]
COC(=O)Cn1c(C)c(/C=N/NC(=O)c2cc3c(ccc4ccccc43)o2)c2ccccc21	NCIH-125	0.333

====

Test system: K562/ADR
Test: Anti-proliferative activity in cancer cells showing multiple drug resistance (MTT assay)
Format: cell-based
Conditions: Homo sapiens, 96 h; K562/ADR multiple drug-resistant line, 4 days, MTT; mean of three assays
pIC50: −log10 of the molar value.

moleculeSmiles	pIC50
COC(=O)Cn1c(C)c(/C=N/NC(=O)c2cc3c(ccc4ccccc43)o2)c2ccccc21	6.50

====

Assay: Solubility in phosphate buffer
Format: physicochemical
Conditions: aqueous buffer, thermodynamic from solid; phosphate buffer pH 6.5, room temperature

moleculeSmiles	solubility at 1 h (µg/mL)
COC(=O)Cn1c(C)c(/C=N/NC(=O)c2cc3c(ccc4ccccc43)o2)c2ccccc21	0.9
